Counter-ions that a name gives are not always drawn.
Property Label: melting point

1) Cc1cccc(C2CC(C)(C)n3nc(C)c(C(=O)O)c3N2)c1 (stereo not shown)    146 to 148 °C
2) CCC(CC)(NC(=O)c1cnn2c1NC(c1ccccc1)CC2(C)C)c1ccc(C)c(C)c1 (stereo not shown) (as salt: HCl)    137 to 138 °C
3) CCC(CC)(NC(=O)c1c(C)nn2c1NC(c1ccccc1)CC2(C)C)c1ccc(SC)cc1 (stereo not shown)    149 to 150 °C
4) O=C(NC1(C(=O)Nc2ccccc2)CCCCC1)c1cnn2c1N[C@H](c1ccccc1)C[C@@H]2C(F)(F)F (stereo in doubt)    262 to 263 °C
5) CCC(CC)(NC(=O)c1cnn2c1NC(c1ccccc1)CC21CCCC1)c1ccc(C(F)(F)F)cc1 (stereo not shown)    205 to 207 °C
6) CCC(CC)(NC(=O)c1c(C)nn2c1NC(c1ccccc1)CC2(C)C)c1ccc(CO)cc1 (stereo not shown)    146 to 147 °C

Consider O=C(O)c1cnn2c1NC(c1ccc(Cl)cc1)CC2C(F)(F)F (stereo not shown) . Its measured melting point is 186 to 187 °C

Consider CCC(CC)(NC(=O)c1cnn2c1NC(c1ccccc1)CC2(C)C)c1ccc(O)cc1 (stereo not shown) . Its measured melting point is 152 to 153 °C

Consider CCC(C#N)NC(=O)c1cnn2c1N[C@H](c1ccccc1)C[C@@H]2C(F)(F)F (stereo in doubt) [Example 284] . Its measured melting point is 201 to 202 °C

Consider CCC(CC)(NC(=O)c1cnn2c1NC(c1ccccc1)CC2(C)C)c1ccc(-c2ccco2)cc1 (stereo not shown) . Its measured melting point is 167 to 168 °C

Consider O=C(NC12CC3CC(CC(C3)C1)C2)c1cnn2c1NC(c1ccccc1)CC21CCCCC1 (stereo not shown) . Its measured melting point is 274 to 275 °C

Consider Cc1nn2c(c1C(=O)O)NC(c1ccccc1F)CC2(C)C (single isomer, unassigned; (+)) . Its measured melting point is 150 to 151 °C

Consider CCC(CC)(NC(=O)c1c(C)nn2c1N[C@@H](c1ccccc1)CC2(C)C)c1ccc(CO)cc1 (as salt: HCl) . Its measured melting point is 168 to 169 °C

###

The entries below are paired with their reported melting point.
Counter-ions that a name gives are not always drawn.

Worked cases, melting point given:
1. CCC(CC)(CC)NC(=O)c1cnn2c1NC(c1ccccc1)CC2(C)C (stereo not drawn)    93 to 94 °C
2. CCC(CC)(NC(=O)c1cnn2c1NC(c1ccccc1)CC2(C)C)c1cccc(F)c1 (stereo not drawn)    180 to 181 °C

Field: next compound
Consider CCC(CC)(NC(=O)c1c(C)nn2c1N[C@@H](c1ccccc1)CC2(C)C)c1cc(C)n(-c2ccccc2)n1 (as salt: HCl) . Its measured melting point is 194 to 195 °C
